Listing of recorded pKi by entry.
targetOfAssay: CB1 (UniProt P21554)
method: CB1 radioligand binding assay
Set-up: species or system human
testContext: read-out: Ki (CB1)
pKi: −log10 of the molar value.
experimentalReadout: pKi

molecule: CC(=O)N/C(N)=N\C(=N\S(=O)(=O)c1ccc(C#N)cc1)N1CCC(c2ccccc2)C(c2ccc(Cl)cc2)=N1 (stereo not shown) [Compound 13a]
numericResult: 7.61
//
molecule: C[Se]/C(N)=N\C(=N\S(=O)(=O)c1ccc2ccccc2c1)N1CCC(c2ccccc2)C(c2ccc(Cl)cc2)=N1 (stereo not shown) [Compound 12f]
numericResult: 6.50
//
molecule: C[Se]/C(N)=N\C(=N\S(=O)(=O)c1ccc(C#N)cc1)N1CCC(c2ccccc2)C(c2ccc(Cl)cc2)=N1 (stereo not shown) [Compound 12e]
numericResult: 6.75
//
molecule: N/C(=N\C(=N\S(=O)(=O)c1ccc(C(F)(F)F)cc1)N1CCC(c2ccccc2)C(c2ccc(Cl)cc2)=N1)c1ccccn1 (single isomer, unassigned) [Compound 10vE1]
numericResult: 7.94

// data source = patent US20250197359A1
